// provenance: PubChem BioAssay

Assay: HUVEC growth inhibition – cell-based, human, primary screen (AID 575);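 further: 100% = median of untreated cell wells with 0.1% DMSO on each plate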
Details: HUVEC proliferation, CellTiter-Glo luminescence, 72 h; at 10 µM; hits give low values
Form field: viability (one value per entry).
observation_type: viability (%)

molecule | observation_type | quantitative_result
CCOC(=O)c1cnc(C(C)(C)C)[nH]c1=O | viability | 102
N=c1nc(N2CCCCC2)cc(N)n1O | viability | 89.3
CC(C)Oc1ccc(C2C(C(=O)c3ccco3)=C(O)C(=O)N2CCCN(C)C)cc1 (configuration not stated) | viability | 118
CN1CCN(c2ncnc3c2cnn3-c2ccc(Cl)cc2)CC1 | viability | 53.6
Cc1cc(NC(=O)CSc2nccn2-c2ccc(Cl)cc2)no1 | viability | 111
CCOCCCN(Cc1cc2cc(C)cc(C)c2[nH]c1=O)C(=O)N(CC)CC | viability | 116
O=C(O)CCn1c(=O)c2ccccc2c2ccccc2c1=O | viability | 109
Cc1oc(-c2ccc(Cl)cc2)cc1-c1nn2c(-c3ccoc3C)nnc2s1 | viability | 75.3
CCCCOc1ccc(N(CC(=O)NC2CCCC2)C(=O)CCC(=O)Nc2ccccn2)cc1 | viability | 71.7
CCOC(=O)c1cc(-c2ccccc2)sc1N | viability | 71.1
Cc1nc2ccccn2c(=O)c1CCN1CCC(C(=O)c2ccc(F)cc2)CC1 | viability | 83.6
CCOC(=O)C1CCCN(C(=O)c2cccs2)C1 (configuration not stated) | viability | 96.7
Cc1ccc(NC(=O)c2ccco2)c(NC(=O)c2cccs2)c1 | viability | 92
CCc1c(C)nc2ncnn2c1NCCc1ccc(OC)c(OC)c1 | viability | 103
O=C(Nc1ccccc1)N(Cc1cccnc1)Cc1ccco1 | viability | 86.1
O=C(Nc1ccncc1)C1c2ccccc2Oc2ccccc21 | viability | 100
CC1CN(CC(O)COc2ccccc2C(C)(C)C)CC(C)O1 (configuration not stated) | viability | 114
C=CCn1c(SCC(=O)NCC2CCCO2)nc2scc(-c3ccco3)c2c1=O (configuration not stated) | viability | 88.2
CCc1c(C(=O)NCCc2ccc(OC)c(OC)c2)[nH]c(C)c1C(C)=O | viability | 98.6
O=C(Nc1cccc(OCC(=O)N2CCOCC2)c1)C1CCCCC1 | viability | 90
Cc1cccc(CC2CC(=O)N(c3ccccc3)C2=O)c1 (configuration not stated) | viability | 101
COc1cc(C2c3c(n[nH]c3C)C(=O)N2c2ccc(C)cc2)ccc1O (configuration not stated) | viability | 88.9
CCOc1ccc(C2C(C(=O)OC)=CN(CCOC)C=C2C(=O)OC)cc1 | viability | 90
CCC(c1c(C)n(C)n(-c2ccccc2)c1=O)c1c(C)n(C)n(-c2ccccc2)c1=O | viability | 103
CCc1cc(-c2[nH]ncc2-c2ccc3c(c2)OCO3)c(O)cc1O | viability | 4.08
Cc1cc(C(=O)CSc2nc3ccccc3n2CCC#N)c(C)n1Cc1cccs1 | viability | 110
Cc1ccc(-c2nn(-c3ccccc3)cc2/C=C(\C#N)c2cccc(C#N)c2)o1 | viability | 92
Cc1ccc(Nc2nc(N)nc(CN3CCN(Cc4ccc5c(c4)OCO5)CC3)n2)cc1 | viability | 106
O=C(CN1CCN(C2CCCCC2)CC1)Nc1ccccc1-c1ccccc1 | viability | 91.4
Cc1onc(-c2ccccc2)c1C(=O)N1CCOCC1 | viability | 99.3
CCOC(=O)c1[nH]c(C)c(C(=O)Nc2ccccc2C)c1C | viability | 60.8
COc1ccc(-c2nnn(CC(=O)c3ccc4c(c3)OCCO4)n2)cc1OC | viability | 73.8
Cc1nn(C)cc1C1C2=C(CC(C)(C)CC2=O)OC2=C1C(=O)CC(C)(C)C2 | viability | 110
O=C(O)CCNC(=O)c1ccccc1 | viability | 99.1
Cc1noc(C)c1C(=O)Nc1sc(C)c(C)c1C#N | viability | 105
Cc1csc(OCc2ccc(C#N)cc2)n1 | viability | 98.6
O=C(O)CSC1CC(=O)N(c2ccc(Cl)c(Cl)c2)C1=O (configuration not stated) | viability | 109
Cc1cccc(N(CC(=O)Nc2ccc(CC#N)cc2)S(C)(=O)=O)c1 | viability | 105
OC[C@H]1O[C@@H](n2cnc3c(NC4CCCC4)ncnc32)[C@H](O)[C@@H]1O | viability | 57.6
CN(C)CCCC1(c2ccc(F)cc2)OCc2cc(C#N)ccc21 (configuration not stated) | viability | 73.3
CCOC(=O)N1CCC(N(C(=O)Nc2cccc(OC)c2)C(C)CC)CC1 (configuration not stated) | viability | 120
CCSCc1nnc(SCC(=O)Nc2cccc(SC)c2)n1C | viability | 84.3
Cc1ccccc1-n1nc(C)c2cc(C(=O)NCc3cccnc3)sc21 | viability | 74.1
Nc1nc(-c2ccc(Cl)cc2)nn1C(=O)c1cccnc1 | viability | 98.2
CN(C)CC(C(=O)c1ccccc1)c1ccccc1 (configuration not stated) | viability | 53.4
O=C(COc1ccc(S(=O)(=O)N2CCCC2)cc1Cl)NC1CC1 | viability | 112
O=C(Cc1cccs1)NCc1ccc(F)cc1 | viability | 98
